- experiment.summary: log P determination (HPLC, calibration with unbranched alkan-2-ones)
- Format: physicochemical
- details: * LC-MS determination in the acidic range, pH 2.7, 0.1% aqueous formic acid and acetonitrile, linear gradient 10% to 95% acetonitrile
log p by entry:

Recorded results for 6 compounds are shown here.
>  <compound>
O=C(OC1CCCCC1)c1csc(C2CCN(C(=O)Cn3ccc(C(F)(F)F)n3)CC2)n1 [compound 85]

>  <value.type>
log p

>  <experimental.value>
3.42*

$$$$
>  <compound>
CC(OC(=O)c1csc(C2CCN(C(=O)Cn3ccc(C(F)(F)F)n3)CC2)n1)c1ccc(F)cc1 (stereo not shown) [compound 124]

>  <value.type>
log p

>  <experimental.value>
3.18*

$$$$
>  <compound>
Cc1cc(C(F)(F)F)nn1CC(=O)N1CCC(c2nc(C(=O)OC3CCCC3)cs2)CC1 [compound 3]

>  <value.type>
log p

>  <experimental.value>
3.40*

$$$$
>  <compound>
Cc1cc(C(F)(F)F)nn1CC(=O)N1CCC(c2nc(C(=O)OC3CCc4ccccc43)cs2)CC1 (stereo not shown) [compound 8]

>  <value.type>
log p

>  <experimental.value>
3.76*

$$$$
>  <compound>
Cc1cc(C(F)(F)F)nn1CC(=O)N1CCC(c2nc(C(=O)OCc3ccccc3)cs2)CC1 [compound 15]

>  <value.type>
log p

>  <experimental.value>
3.37*

$$$$
>  <compound>
Cc1cc(C(F)(F)F)nn1CC(=O)N1CCC(c2nc(C(=O)OCc3ccc(F)cc3)cs2)CC1 [compound 12]

>  <value.type>
log p

>  <experimental.value>
3.35*

$$$$

log p in this record for C[Si](C)(C)COC(=O)c1csc(C2CCN(C(=O)Cn3ccc(C(F)(F)F)n3)CC2)n1 [compound 84] : 3.53*

log p in this record for O=C(OCc1ccccc1)c1csc(C2CCN(C(=O)Cn3ccc(C(F)(F)F)n3)CC2)n1 [compound 94] : 2.99*

log p in this record for Cc1cc(C(F)(F)F)nn1CC(=O)N1CCC(c2nc(C(=O)OCc3cccs3)cs2)CC1 [compound 81] : 3.22*

log p in this record for Cc1ccccc1COC(=O)c1csc(C2CCN(C(=O)Cn3nc(C(F)(F)F)cc3C)CC2)n1 [compound 31] : 3.62*

log p in this record for Cc1cc(C(F)(F)F)nn1CC(=O)N1CCC(c2nc(C(=O)OCc3ccccn3)cs2)CC1 [compound 80] : 2.21*

log p in this record for Cc1ccc(COC(=O)c2csc(C3CCN(C(=O)Cn4nc(C(F)(F)F)cc4C)CC3)n2)cc1 [compound 18] : 4.21*

log p in this record for Cc1cc(C(F)(F)F)nn1CC(=O)N1CCC(c2nc(C(=O)OCc3cccc(Cl)c3)cs2)CC1 [compound 24] : 3.72*

log p in this record for Cc1cc(C(F)(F)F)nn1CC(=O)N1CCC(c2nc(C(=O)OC(C)c3ccc(F)cc3)cs2)CC1 (stereo not shown) [compound 41] : 3.60*

log p in this record for O=C(OC1CCc2ccccc21)c1csc(C2CCN(C(=O)Cn3ccc(C(F)(F)F)n3)CC2)n1 (stereo not shown) [compound 91] : 3.37*

log p in this record for Cc1cc(C(F)(F)F)nn1CC(=O)N1CCC(c2nc(C(=O)OCc3cc(Cl)cc(Cl)c3)cs2)CC1 [compound 21] : 4.24*

log p in this record for Cc1cc(C(F)(F)F)nn1CC(=O)N1CCC(c2nc(C(=O)OCc3cccc(C(F)(F)F)c3)cs2)CC1 [compound 25] : 3.81*

log p in this record for Cc1cc(C(F)(F)F)nn1CC(=O)N1CCC(c2nc(C(=O)OCc3ccc(C(C)(C)C)cc3)cs2)CC1 [compound 29] : 4.57*

log p in this record for Cc1cc(C(F)(F)F)nn1CC(=O)N1CCC(c2nc(C(=O)Oc3ccc4ccccc4c3)cs2)CC1 [compound 10] : 3.84*

log p in this record for O=C(Oc1cccc2ccccc12)c1csc(C2CCN(C(=O)Cn3ccc(C(F)(F)F)n3)CC2)n1 [compound 92] : 3.42*

log p in this record for Cc1cc(C(F)(F)F)nn1CC(=O)N1CCC(c2nc(C(=O)OCc3ccc([N+](=O)[O-])cc3)cs2)CC1 [compound 28] : 3.22*

log p in this record for Cc1cc(C(F)(F)F)nn1CC(=O)N1CCC(c2nc(C(=O)OCc3ccc(Cl)cc3)cs2)CC1 [compound 17] : 3.73*

log p in this record for Cc1cc(C(F)(F)F)nn1CC(=O)N1CCC(c2nc(C(=O)OCc3ccc(Cl)cc3Cl)cs2)CC1 [compound 20] : 3.69*

log p in this record for Cc1cc(C(F)(F)F)nn1CC(=O)N1CCC(c2nc(C(=O)Oc3ccc(F)cc3)cs2)CC1 [compound 45] : 3.26*

* * *

chromatographic logP by entry:
- experiment.summary: log P determination (HPLC, calibration with unbranched alkan-2-ones)
- Assay type: physicochemical
- details: pH 2.7; read-out: log P (pH 2.7)
- Description: The calibration is carried out using unbranched alkan-2-ones (having 3 to 16 carbon atoms) with known log P values (determination of the log P values by the retention times using linear interpolation between two successive alkanones). The lambda-maX values were determined in the maxima of the chromatographic signals using the UV spectra from 200 nm to 400 nm.

>  <molecule>
CC(C)(C)OC(=O)N1CCC(c2nc(C(=O)Oc3cccc4ccccc34)cs2)CC1 [IX-2]

>  <chromatographic logP>
4.5

$$$$
>  <molecule>
CC(C)c1cc(C(F)(F)F)n(CC(=O)O)n1 [V-5]

>  <chromatographic logP>
2.05

$$$$
>  <molecule>
Cc1cc(C(F)(F)F)nn1CC(=O)N1CCC(c2nc(C(=O)OC3CCCc4ccccc43)cs2)CC1 (centres unmarked) [compound 224]

>  <chromatographic logP>
4.01

$$$$
>  <molecule>
CCOC(=O)Cn1nc(C(C)(C)C)cc1C(F)(F)C(F)(F)F [XVI-3]

>  <chromatographic logP>
4.45

$$$$

Turning now to a further molecule:
chromatographic logP in this record for O=C(OC1CCCCC1)c1csc(C2CCN(C(=S)Cn3nc(C(F)F)cc3C(F)F)CC2)n1 [compound 854] : 4.23

* * *

- experiment.summary: log P determination (HPLC, calibration with unbranched alkan-2-ones)
- Format: physicochemical
- details: * LC-MS determination in the acidic range at pH 2.7, mobile phases 0.1% aqueous formic acid and acetonitrile (0.1% formic acid), linear gradient 10% to 95% acetonitrile; reversed-phase C 18 HPLC
log p by entry:

Recorded results for 3 compounds are shown here.
>  <compound>
Cc1cc(C(F)(F)F)nn1CC(=O)N1CCC(c2nc(C(=O)OCc3cccnc3)cs2)CC1

>  <value.type>
log p

>  <experimental.value>
1.74*

$$$$
>  <compound>
Cc1cc(C(F)(F)F)nn1CC(=O)N1CCC(c2nc(C(=O)OC3CCCCC3C)cs2)CC1 (stereo not shown)

>  <value.type>
log p

>  <experimental.value>
4.12*

$$$$
>  <compound>
Cc1cc(C(F)(F)F)nn1CC(=O)N1CCC(c2nc(C(=O)O[C@@H]3CCCc4ccccc43)cs2)CC1

>  <value.type>
log p

>  <experimental.value>
4.06*

$$$$

Turning now to a further compound:
log p in this record for COc1cccc(OC)c1OC(=O)c1csc(C2CCN(C(=O)Cn3nc(C(F)(F)F)cc3C)CC2)n1 : 3.12*

* * *

log p by entry:
- experiment.summary: log P determination (HPLC, calibration with unbranched alkan-2-ones)
- Format: physicochemical
- details: * LC-MS determination in the acidic range at pH 2.7, 0.1% aqueous formic acid and acetonitrile, linear gradient 10% to 95% acetonitrile, reversed-phase C 18

>  <compound>
Cc1c(Cl)c(C(F)(F)F)nn1CC(=O)N1CCC(c2nc(C(=O)Oc3ccc(F)cc3)cs2)CC1

>  <log p>
3.63*

$$$$
>  <compound>
Cc1c(Cl)c(C(F)(F)F)nn1CC(=O)N1CCC(c2nc(C(=O)OC[Si](C)(C)C)cs2)CC1

>  <log p>
4.28*

$$$$
>  <compound>
Cc1c(Cl)c(C(F)(F)F)nn1CC(=O)N1CCC(c2nc(C(=O)OC3CCCC4CCCCC43)cs2)CC1 (stereo not drawn)

>  <log p>
5.44*

$$$$

log p in this record for Cc1c(Cl)c(C(F)(F)F)nn1CC(=O)N1CCC(c2nc(C(=O)OC3CCCCC3)cs2)CC1 : 4.17*

log p in this record for O=C(Oc1ccc(F)cc1)c1csc(C2CCN(C(=O)Cn3ccc(C(F)(F)F)n3)CC2)n1 : 2.89*

log p in this record for Cc1c(Cl)c(C(F)(F)F)nn1CC(=O)N1CCC(c2nc(C(=O)OC3CCCC3)cs2)CC1 : 3.84*

log p in this record for O=C(OCc1ccncc1)c1csc(C2CCN(C(=O)Cn3ccc(C(F)(F)F)n3)CC2)n1 : 1.32*

log p in this record for O=C(Oc1ccccc1)c1csc(C2CCN(C(=O)Cn3ccc(C(F)(F)F)n3)CC2)n1 : 2.85*

log p in this record for Cc1c(Cl)c(C(F)(F)F)nn1CC(=O)N1CCC(c2nc(C(=O)Oc3ccc4ccccc4c3)cs2)CC1 : 4.17*

log p in this record for Cc1c(Cl)c(C(F)(F)F)nn1CC(=O)N1CCC(c2nc(C(=O)OC3CCCc4ccccc43)cs2)CC1 (stereo not drawn) : 4.40*

log p in this record for O=C(OCc1cccs1)c1csc(C2CCN(C(=O)Cn3ccc(C(F)(F)F)n3)CC2)n1 : 2.85*

log p in this record for Cc1c(Cl)c(C(F)(F)F)nn1CC(=O)N1CCC(c2nc(C(=O)Oc3cccc4ccccc34)cs2)CC1 : 4.17*

log p in this record for Cc1c(Cl)c(C(F)(F)F)nn1CC(=O)N1CCC(c2nc(C(=O)Oc3ccccc3)cs2)CC1 : 3.58*

log p in this record for O=C(OCCc1ccc(F)cc1)c1csc(C2CCN(C(=O)Cn3ccc(C(F)(F)F)n3)CC2)n1 : 3.27*
